- target.desc: human Bradykinin B1 receptor (Homo sapiens)
- Sequence (P46663 whole entry): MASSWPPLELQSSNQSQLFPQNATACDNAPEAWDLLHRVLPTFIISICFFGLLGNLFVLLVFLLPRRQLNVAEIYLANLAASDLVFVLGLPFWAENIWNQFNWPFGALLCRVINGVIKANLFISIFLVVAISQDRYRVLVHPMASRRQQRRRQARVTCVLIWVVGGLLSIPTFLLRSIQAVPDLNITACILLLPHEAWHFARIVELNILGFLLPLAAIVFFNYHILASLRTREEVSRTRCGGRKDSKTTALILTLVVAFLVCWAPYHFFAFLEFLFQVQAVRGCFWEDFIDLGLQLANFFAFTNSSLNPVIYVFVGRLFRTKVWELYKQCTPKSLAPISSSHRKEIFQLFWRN
- test: Calcium flux Assay (FLIPR) with cells expressing human Bradykinin B1 receptor (hB1)
- experimental.parameters: absence of 0.1% BSA in assay buffer; CHO-K1 cell line expressing human B1 receptor; agonist Lys-(Des-Arg)-Bradykinin; read-out: hB1 free IC50
- Procedure: The potency to inhibit the Bradykinin B1 receptor was determined for the compound examples of this invention in a cell-based fluorescent calcium-mobilisation assay. […] The change of the intracellular Ca^2+ concentration is monitored with a fluorescent plate reader FLIPR^TETRA® […] Peak fluorescence was used to determine the response to agonist obtained at each concentration of example compound by the following equation: […]
experimental.readout: pIC50
To interpret pIC50, take it as minus log10 of a concentration measured in moles per litre.

The cases that follow already have their pIC50 on record.
>>> endpoint_value("CCOC(=O)c1c(C)cc(NC(=O)C2(c3ccc(C(F)(F)F)cc3F)CC2)cc1-c1nnn[nH]1")
7.59
>>> endpoint_value("CCC(C)OC(=O)c1ccc(NC(=O)C2(c3ccc(C)cc3F)CC2)cc1-c1nnn[nH]1 (racemic)")
7.77
>>> endpoint_value("CC[C@H](C)NC(=O)c1ccc(NC(=O)C2(c3ccc(C(F)(F)F)cc3F)CC2)cc1-c1nnn[nH]1")
7.10

In the following, a different compound is considered.
Which value of pIC50 has been reported for `O=C(c1ccc(NC(=O)C2(c3ccc(C(F)(F)F)cc3F)CC2)cc1-c1nnn[nH]1)N1CCCCC1` in the records?
7.15
